- System: IL-1β cytokine output from THP-1s
- MEASUREMENT PROTOCOL: THP-1 AlphaLISA IL-1β cytokine assay (differentiated THP-1 cells, LPS then nigericin)
- Type: cell-based
- APPLIED CONDITIONS: Homo sapiens, 30 min pre-incubation, LPS 24 hr, nigericin 1 hour
ATTRIBUTE MEASURED: log10 of IC50 (log10 of the value in µM)
Friendly reminder: values = log10 of IC50, unit µM.

Example cases with answers are listed next.
{"COMPOUND": "C=C(CC(=O)OC1(c2ccc(C(F)(F)F)cc2)COC1)C(=O)NC [Example 13]", "log10 of IC50": 1.24}
{"COMPOUND": "C=C(Cc1nc(C2(c3ccc(SC(F)(F)F)cc3)CC2)no1)C(=O)NCC(=O)O [Example 27]", "log10 of IC50": 0.98}
{"COMPOUND": "C=C(CC(=O)OC1(c2ccc(C(F)(F)F)cc2)CCC1)C(=O)NC1CS(=O)(=O)C1 [Example 25]", "log10 of IC50": 1.30}
{"COMPOUND": "C=C(CC(=O)OC1(c2ccc(C(F)(F)F)c(F)c2)CCC1)C(=O)NC [Example 22]", "log10 of IC50": 1.04}

Dear colleague, I am looking for the recorded log10 of IC50 of the following compound: C=C(CC(=O)OC1(c2ccc(C(F)(F)F)cc2)CCC1)C(N)=O [Example 8] 1.54

---

- System: IL-1β cytokine output from THP-1s
- MEASUREMENT PROTOCOL: THP-1 AlphaLISA IL-1β cytokine assay (differentiated THP-1 cells, LPS then nigericin)
- Type: cell-based
- APPLIED CONDITIONS: Homo sapiens, 30 min pre-incubation, LPS 24 hr, nigericin 1 hour
ATTRIBUTE MEASURED: IC50 (µM)
The response must be a number in µM with no trailing unit.

{"MOLECULE": "C=C(CC(=O)OC1(c2ccc(C(F)(F)F)cc2)COC1)C(N)=O", "SUBJECT OF TEST": "IL-1β cytokine output from THP-1s", "ATTRIBUTE MEASURED": "IC50", "OBS VALUE": 6.5}
{"MOLECULE": "C=C(CC(=O)OC1(c2ccc(C(F)(F)F)cc2)CCC1)C(=O)NCCS(C)(=O)=O", "SUBJECT OF TEST": "IL-1β cytokine output from THP-1s", "ATTRIBUTE MEASURED": "IC50", "OBS VALUE": 18}

Query IC50 on IL-1β cytokine output from THP-1s for C=C(Cc1nc(C2(c3ccc(SC(F)(F)F)cc3)CC2)no1)C(=O)NC(C(=O)O)C(F)(F)F (stereo not shown) 7.9

---

This section presents compounds with their documented Emax values.
- System: NRF2 (nuclear factor erythroid 2-related factor 2)
- MEASUREMENT PROTOCOL: NRF2 activation assay (DiscoverX PathHunter NRF2 translocation kit, U2OS cells)
- Assay type: cell-based
- APPLIED CONDITIONS: Homo sapiens, U2OS; +GSH; normalised to dimethyl fumarate high control
A number alone suffices; assume %.

Look over these answered cases.
{"COMPOUND": "C=C(CC(=O)OC1(c2ccc(C(F)(F)F)cc2)CCC1)C(=O)NC [Example 7]", "SUBJECT OF TEST": "NRF2 (nuclear factor erythroid 2-related factor 2)", "ATTRIBUTE MEASURED": "Emax", "OBS VALUE": 27}
{"COMPOUND": "C=C(Cc1nc(C2(c3ccc(SC(F)(F)F)cc3)CC2)no1)C(=O)NCC(=O)O [Example 27]", "SUBJECT OF TEST": "NRF2 (nuclear factor erythroid 2-related factor 2)", "ATTRIBUTE MEASURED": "Emax", "OBS VALUE": 20}
{"COMPOUND": "C=C(Cc1nc(C2(c3ccc(SC(F)(F)F)cc3)CC2)no1)C(=O)NC(C(=O)O)C(F)(F)F (stereo not drawn) [Example 28]", "SUBJECT OF TEST": "NRF2 (nuclear factor erythroid 2-related factor 2)", "ATTRIBUTE MEASURED": "Emax", "OBS VALUE": 34}

What reported Emax corresponds to C=C(CC(=O)O[C@@H](C)c1ccc(C(F)(F)F)cc1)C(N)=O [Example 9] on NRF2 (nuclear factor erythroid 2-related factor 2)? 26

# query: Emax | item C=C(Cc1nc(C2(c3ccc(SC(F)(F)F)cc3)CC2)no1)C(=O)Nc1cnccn1 [Example 2] | system: NRF2 (nuclear factor erythroid 2-related factor 2) 79

Hello, I am looking for reported Emax with NRF2 (nuclear factor erythroid 2-related factor 2) for C=C(CC(=O)OC1(c2cc(Cl)cc(Cl)c2)CCC1)C(N)=O [Example 20] . Could you help? 28

Field: Emax (NRF2 (nuclear factor erythroid 2-related factor 2)). Entry: C=C(Cc1ccccc1Cl)C(=O)O [2-(2-chlorobenzyl)acrylic acid, reference compound] 9

API: value(readout= Emax, system= NRF2 (nuclear factor erythroid 2-related factor 2), query= C=C(CC(=O)OC1(c2ccc(C(F)(F)F)cc2)CCC1)C(N)=O [Example 8] ) 7

# query: Emax | item C=C(CC(=O)OC1(c2ccc(C(F)(F)F)c(F)c2)CCC1)C(=O)NC [Example 22] | system: NRF2 (nuclear factor erythroid 2-related factor 2) 48

---

- System: IL-1β cytokine output from THP-1s
- MEASUREMENT PROTOCOL: THP-1 AlphaLISA IL-1β cytokine assay (differentiated THP-1 cells, LPS then nigericin)
- Type: cell-based
- APPLIED CONDITIONS: Homo sapiens, 30 min pre-incubation, LPS 24 hr, nigericin 1 hour
Measured pIC50 by item
Scale: pIC50 equals -log10([C]), with [C] in mol/L.

Record excerpt, results attached:
{"COMPOUND": "C=C(CC(=O)OC(C)(C)CCCCCC)C(=O)Nc1cnccn1 [Example 6]", "OBS VALUE": 5.42}
{"COMPOUND": "C=C(CC(=O)OC1(c2ccc(C(F)(F)F)cn2)COC1)C(=O)NC [Example 15]", "OBS VALUE": 4.88}

Give the measured pIC50 of C=C(CC(=O)O[C@@H](C)c1ccc(C(F)(F)F)cc1)C(N)=O [Example 9] . 5.00

Look up pIC50: C=C(CC(=O)O[C@@H](C)c1ccc(C(F)(F)F)cc1)C(=O)NC [Example 10] 4.98

Value lookup for pIC50; key = C=C(CC(=O)OC1(c2cc(Cl)cc(Cl)c2)CCC1)C(=O)NC [Example 19] 4.76

Fill in the blank: the reported pIC50 of C=C(CC(=O)OC1(c2cc(Cl)cc(Cl)c2)CCC1)C(N)=O [Example 20] is ____. 4.88

---

# key: entry, value: Emax
- Test system: NRF2 (nuclear factor erythroid 2-related factor 2)
- MEASUREMENT PROTOCOL: NRF2 activation assay (DiscoverX PathHunter NRF2 translocation kit, U2OS cells)
- Format: cell-based
- APPLIED CONDITIONS: Homo sapiens, U2OS; −GSH; normalised to dimethyl fumarate high control

{"MOLECULE": "C=C(CC(=O)OC1(c2ccc(C(F)(F)F)cc2)CCC1)C(N)=O [Example 8]", "ATTRIBUTE MEASURED": "Emax", "OBS VALUE": "21%"}
{"MOLECULE": "C=C(CC(=O)O[C@@H](C)c1ccc(C(F)(F)F)cc1)C(N)=O [Example 9]", "ATTRIBUTE MEASURED": "Emax", "OBS VALUE": "110%"}
{"MOLECULE": "C=C(CC(=O)OC)C(=O)OC [dimethyl itaconate, reference compound]", "ATTRIBUTE MEASURED": "Emax", "OBS VALUE": "126%"}

Missing value: Emax, NRF2 (nuclear factor erythroid 2-related factor 2), entry C=C(Cc1nc(C2(c3ccc(SC(F)(F)F)cc3)CC2)no1)C(=O)NC(C(=O)O)C(F)(F)F (stereo not shown) [Example 28] . Fill in? 67%

Please tell me: Emax of C=C(Cc1nc(C2(c3ccc(SC(F)(F)F)cc3)CC2)no1)C(=O)Nc1cnccn1 [Example 2] , system NRF2 (nuclear factor erythroid 2-related factor 2)? 117%

---

- System: IL-1β cytokine output from THP-1s
- MEASUREMENT PROTOCOL: THP-1 AlphaLISA IL-1β cytokine assay (differentiated THP-1 cells, LPS then nigericin)
- Type: cell-based
- APPLIED CONDITIONS: Homo sapiens, 30 min pre-incubation, LPS 24 hr, nigericin 1 hour
ATTRIBUTE MEASURED: pIC50
// returns pIC50 (minus log10 of molar concentration), number only

{"COMPOUND": "C=C(Cc1nc(Cc2ccc(CCCC)cc2)no1)C(=O)Nc1ncc(C)s1 [Example 5]", "pIC50": 5.72}
{"COMPOUND": "C=C(CC(=O)O[C@H](C)c1ccc(C(F)(F)F)cc1)C(=O)NC [Example 11]", "pIC50": 5.48}

# input for lookup
I have this compound here, C=C(CC(=O)OC1(c2ccc(C(F)(F)F)c(F)c2)CCC1)C(N)=O [Example 21] , and I need its recorded pIC50. 4.81
